assay: yeast display, Sf9 membrane polyspecificity reagent, FACS + sequencing; frameworks hold sequencing errors
parameter: polyreactivity (PSR sort gate)

Example entries begin here.
QVQRVESGGCLVQAGGSLRLSCAASGYTFGSNAMGWYIQAPGKERELVAAITYGAGRTSYADSVKGRFTISRDNAKNTVYLQMNSLKPEDTAVYYCAAVWGYVIWVDSAVYREYDYWGQGTQVTVSS; high polyreactivity
QVQLVESGGGLVQAGGSLRLSCAASGSTFGNNAMGWYRQAPGKERELVATIDDTTVSTNYADSVKWRFTISRDNAKNTVYLQMNSLKPEDTAVYYCAAPVGNYGSFDYWGQGTQVTVSS; low polyreactivity
QDQLVESGGGLVQAGGSLRLSCAASGRIFVYYVMGLYRQAPGKERELVAAITYSGGSTYYADSVKGRFTISRDNAKNTVYLQMNSLKPEDTAVYYCNNVDAFGIVRLYYWGQGTQVTVSS; low polyreactivity
QVQLVESGGGLVQAGGSLRLSCAASGRSFDRNAMGLYRQAPGKERELVADITSIGTRTYYADSVKGRFTISRDNAKNSVYLQMNSLKPEDTAVYYCAADYYYSYWYWFSSSYGYWGQGTQVTVSS; high polyreactivity

Next:
Ask: Output polyreactivity (PSR sort gate) of `QVQLVESGGGLVQAGGSLRLSCAASGRTFLLYAMGWYRQAPGKERELVARITGRGGRTYYADSVKGRFTISRDNAKNTVYLQMNSLKPEDTAVYYCNKRYPLGTEYYYWGQGTQVTVSS`
Result: high polyreactivity

----------
assay: yeast display, Sf9 membrane polyspecificity reagent, FACS + sequencing; frameworks hold sequencing errors
parameter: polyreactivity (PSR sort gate)

Recorded polyreactivity (PSR sort gate), per entry:
QVQLVESGGGLVQAGGSLRLSCAGSGRILVQNDMGWYRQAPGNESELVAAIRSDGSTSYADSVKGRFTISRDNAKYTVYLQMNSLKPEDTAVYYCAARIDWTGGYYDYWGQGTQVTVSS; low polyreactivity
QVQLQESGGGLVQAGGSLRLSCAASGSISAVGAMGWYRQAPGKEREFAASVNWGTNTNYADSVKGRFTISRDNAKTTLYLQMNSLKPEDTAVYYCAADVQITSAGGDYDYWGQGTQVTVSS; low polyreactivity
QVQLVESGGGLVQAGGSLRLSCAASGFIFDQYAMGWYRQAPGKERELVAAISSGGRTYYADSVKGRFTISRDNAKNTVYLQMNSLKPEDTAVYYCAAKSWTDSRVTGYWGQGTQVTVSS; high polyreactivity
QVQLVESGGGLVQAGGSLRLSCAASGSIFKDNAMGWYRQAPGKERELVAAITSGASTNYADSVKGRFTISRDNAKNTVYLQMNSLKPEVTAVYYCAAVLAGGVYWVVHYDYWGQGTQVTVSS; low polyreactivity
QVQLVESGGGLVQAGGSLRLSCAASGSTFVLYAMGWYRQAPGKERELVAAITWTGGTTNYADSVKGRFTISLDNAKNTDYLQMNILQPEDTAVSYCAAKTNGRYDYWGQGTQVTVSS; low polyreactivity
QVQLVESGGGLVQAGGSLRLSCAASGIFYRNAMGWYRQAPGKERELVAAISWSGGSTYYADSVKGRFTISRDNAKNSVYLQMNSLKPEDTAFYYCAAVGGRYPSNVVGYYYWGQGTQVTVSS; high polyreactivity

Ask: Please give the documented polyreactivity (PSR sort gate) of `QVQLQESGSGLVQAGGSLRLSCAASGAIFPAYLMGWYRQAPGKERELVAGISYGSITYCADSVKGRFNISRDNEKNTVYLQMNSLKPEDTAVYYCAVWRPGGDEYYYWGQGTQVTVSS`
Result: low polyreactivity

Ask: Report polyreactivity (PSR sort gate) for `QVQLVESGGGLVQARGSLRLSCAASGSTFSYYTMGWYRQAPGKERELVATISRRGASTYYADSVKGRFTISRDNAKNTVYLQMHSLKPEDTAVYYCAKSYYYGRSATRPEYDYWGQGTQVTVSS`
Result: high polyreactivity

Ask: Recall and state the measured polyreactivity (PSR sort gate) for `QVQLVESVRGLDQAGGSLRLSCAASGSIFDSNAMGSYRQATGKERELVAAITGSGTSTYYADSVKGRFTISRDNAKNTVYLQMNILKPEDTAVYYCARDSLQVFYTYGSDDYWGQGTQVTVSS` .
Result: low polyreactivity

Ask: Complete the entry with polyreactivity (PSR sort gate) for `QDQLVESGGGLVQAGGSLRLSCAASGGIIVSYAMGWYRQAPGKEMQLVAAITSGGGTSYSDSVKGRFTISRDNAKNTVYLQMNSLKPEDTAVYYCNADGYLAERFVIRLDEYRHYDYWGQGTQVTVSS`
Result: low polyreactivity

Ask: Specify measured polyreactivity (PSR sort gate) for `QVQLVESGGGLVQAGGSLRLSCAASGRIFNLYGMGWYRQAPGKEREFVATITWSGVTTYADSVKGRFTISRDNAKNTVYLQMNSLKPEDTAVYYCAADYRYRTRWYDYWGQGTQVTVSS` .
Result: high polyreactivity

----------
assay: yeast display, Sf9 membrane polyspecificity reagent, FACS + sequencing; frameworks hold sequencing errors
parameter: polyreactivity (PSR sort gate)

Answered examples (5):
QDQLVESRGVIVQAGGSLRLSCAASGRIFSVNAMGWYRQAPGKERELVAAITGSGTITYYADSVKGRFTISRDNAKNIVYLQMNSLKQEDTAVYYCAARPVLRYYAGYYYWGQGTQVTVSS; high polyreactivity
QVQLVESGKGLVQAGGILRLSCAASGLIFGFNAMGWYRQAPGKERELVAAIYGSGGTTYYADSVKGRFTISRDNAKNTVYLQMNSLKPEDTAVYYCAGEYIYNVQFSWPKTPAFDYWGQGTLVTVSS; low polyreactivity
QVQLVESGGGLVQAGGSLRLSCAASGRIFHQYAMGWYRQAPGKERELVAAITGGGSTYYADSVKGRFTISRDNAKNTVSLQMNSLKPEDTAVYYCAAPPFGYYEVGYDSWGQGTQVTVSS; low polyreactivity
QVQLVESGGGLVQAGGSLRLSFAASGRTFGYYAMGWYRHAPGKERELVAAITRNGGRTYYADSVKGRFTISSDNAKNTFYLQMNSLKPEDTAVYYCAKDQYKPEAFYYWGQGTQVTVSS; high polyreactivity
QVQLVESGGGLVQAGGSLRLSCAASGSIFDGNAMGWYRQAPGKERELVAAITNSGGSTYYADSVKGRFTISRDNAKNTVYLQMNSLKPEDTAVYYCNALPFAWRRYRWVRTMYYWGQGTQVTVSS; low polyreactivity

Ask: Provide one value: measured polyreactivity (PSR sort gate) of `QVQLVESGGGLVQAGGRLRLSCAASGFTFLGSAMGWYRQAPGKERELVAAISSSGGSTYYADSVKGRFTISRDNAKNTVYLQMNSLKPEDTAVYYCAAYVAVPPSDYDYWGQGTQVTVSS`
Result: high polyreactivity

Ask: For the sequence `QVQHVESGGGLVQAGGSLRLTCAASGSTSPTNVMGWYRQAPGKERELVAAISYSGGRTYYADSVKGRFTISRDNAKKTVYLQMNSLKPEDTAVYYCAARSLKRKYESWGQGTQVTVSS` , give its measured polyreactivity (PSR sort gate) value.
Result: high polyreactivity

Ask: Provide only the value of recorded polyreactivity (PSR sort gate) for `QDQLVESGGGLVQAGGSLSLSCAASGLIFSDNAMGWYRQAPGKERELVATITFSGSTNYADSVKGRFTISRDNAKNTVYLQMNSLKPEDTAVFFCAADAGGGPFEYWGQGTHVTVSS`
Result: low polyreactivity

Ask: Answer with reported polyreactivity (PSR sort gate) of `QVQLVESGGGLVQAGGSLRLSCAASGITFSRNAMGWYRQAPGKERELVAVISTRGGRTYYADSVKGRFTISRDNAKNTVYLQMNSLKPEDTAVYYCAASPDPYWRRMDYWGQGTQVTVSS`
Result: high polyreactivity

Ask: Fill in reported polyreactivity (PSR sort gate) for this entry: `QVQLVESGAGLVQAGGSLRLSCAASGRTFSRNAMGWYRQPPGKERELVATISRGGGITFYADSVKGRYTISRDNAKNTVYLQMNSLKPEDTAVYYCNADVRYVGLRRIVDYWGQGTQVTVSS`
Result: high polyreactivity

Ask: Check the records and state polyreactivity (PSR sort gate) for `QVQLVESGGGLVQAGCSLRLSCAASGFIFGRYTMGWYRQAPGKERELVAAISGSDVSTYYADSVKGRFTISRDNAKNTVYLQMNSLKPEDTAVYYCNAGPWWYLHEYDYWGQGTQVTVSS`
Result: low polyreactivity

----------
assay: yeast display, Sf9 membrane polyspecificity reagent, FACS + sequencing; frameworks hold sequencing errors
parameter: polyreactivity (PSR sort gate)

QVQLVESGGGLVQAGGSLGLSCAASGSTLSAYVMGWYRQAPGKEREFVAAITWSGGNTYYADSVKGRFTISRDNAKHTVYLQMNSLKPEDTAVYFCARRGYRQSGDYWGQGTQVTVSS; low polyreactivity
QVQLVESGGGLVQAGGSLRLSCAASGSILVDNAMASYRQAPGKERELVARITGSGGSTYYADSVKGRFTISRDNAKNSVYLQMHILKPEDTAVYYCAARRVNAGWTYGLRGNYWGQGTQVTVSS; low polyreactivity
